# System: TK-10 renal
# protocolDetails: NCI tumour cell line growth inhibition, 48 h
measuredMetric: TGI

Look over these answered cases.
molecule: O=C(CCc1cc(O)cc(O)c1)NCCc1ccc(O)c(O)c1
measuredMetric: TGI
result: > 100 µM
//
molecule: CC[C@@]1(O)C(=O)OCc2c1cc1n(c2=O)Cc2c-1nc1ccccc1c2/C=N\NC(=O)C(N)CS (stereo partly drawn)
measuredMetric: TGI
result: > 100 µM

get_value(item= CCOC(OCC)C(CCc1ccccc1)c1c(N)nc(N)[nH]c1=O (stereo not drawn) , readout=TGI) returns > 100 µM

###

Each entry below lists one item and its recorded TGI value.
# Test system: COLO 205 colon
# protocolDetails: NCI tumour cell line growth inhibition, 48 h

compound: CC(C)[C@@H](C(=O)O[C@@H]1/C=C/C(=O)O[C@@H](C)CCC/C=C/[C@@H]2C[C@H](O)C[C@H]21)[N+](C)(C)C
result: > 100 µM

The reported TGI of the compound COC(=O)C1=C(OC(=O)/C(=C/c2ccc(Cl)cc2)c2ccccc2)C(C(=O)OC)[C@@]2(O)[C@@H](C(=O)OC)[C@H](C)C[C@@H]1[C@@H]2C(=O)OC (stereo partly drawn) was > 100 µM

Input Cc1cccc2c(N)c3cccc(C(=O)NCC[N+](C)(C)Cc4sc(N5CCOCC5)nc4[N+](=O)[O-])c3nc12 . Output TGI: > 100 µM

CC1CCC2c3c([nH]c4ccccc34)C3C(=O)N(C4CCCCC4)C(=O)C3C2C1 (stereo not drawn) yielded TGI of > 100 µM

Briefly, TGI measured for COc1cc(C)c(C(=O)/C=C/c2cc(OC)c(O)c(OC)c2)cc1O : > 100 µM

CNC1=C(C)C(=O)C(C)=C(C(C)(C)CC(=O)n2cc(F)c(=O)[nH]c2=O)C1=O has a reported TGI of > 100 µM

Value of measured TGI for the entry COc1ccc(N2CCN(c3ccc4c(c3)NCC(=O)N4)CC2)cc1 : > 100 µM

For record O=C(c1ccc(Cl)cc1)N(C(=S)N1CCN(c2ccccn2)CC1)c1ccccc1 the listed TGI is > 100 µM

###

# Test system: PC-3 prostate
# protocolDetails: NCI tumour cell line growth inhibition, 48 h; in the data active = GI50 below about 0.43 µM; inactive = the rest
Would you mind answering with one of these outcomes? 1.0 (active), 0.0 (inactive)

# count of solved cases: 5
structureSmiles: CC[C@](O)(C(=O)O)c1cc2n(c(=O)c1CO)Cc1cc3ccccc3nc1-2
testSystem: PC-3 prostate
cat: 1.0
--
structureSmiles: Clc1ccccc1-c1nc2ccccc2[nH]1
testSystem: PC-3 prostate
cat: 0.0
--
structureSmiles: COC(=O)Nc1nc2c(OC)c(OC)c(OC)cc2[nH]1
testSystem: PC-3 prostate
cat: 0.0
--
structureSmiles: COC(=O)[C@]12CC[C@@H](C)[C@H](C)[C@@H]1C1=CC[C@@H]3[C@@]4(C)C(c5ncon5)=C[C@@](C)(CO)C4=CC[C@@]3(C)[C@]1(C)CC2
testSystem: PC-3 prostate
cat: 0.0
--
structureSmiles: CC(=O)NNC(=O)c1nn(-c2ccc(Cl)cc2)cc1OC(C)=O
testSystem: PC-3 prostate
cat: 0.0

# input In this assay, the call recorded for Cc1cc[c-]cc1.Fc1c[c-]c(-c2ccccn2)c(F)c1.N#CCC[PH+](CCC#N)c1ccccc1.[Pt+2] was what?
# output 0.0

###

# System: NCI/ADR-RES ovarian
# protocolDetails: NCI tumour cell line growth inhibition, 48 h
measuredMetric: TGI

Consider the worked cases shown below.
molecule: O=C(c1ccc(Cl)cc1)N1N=C(c2ccc(Cl)cc2)CC1(O)c1cc(F)c(Cl)cc1Cl (stereo unspecified)
TGI: > 100 µM

molecule: COC(=O)C1(NC(=O)C(N)CC(=O)O)C(C)C1C (stereo unspecified)
TGI: > 100 µM

molecule: O=C(Cc1ccc(/C=C/C(=O)c2ncc[nH]2)cc1)Nc1ccc(Br)cc1
TGI: > 16.7 µM

molecule: COc1ccc(C(=O)Nc2ncc(Cc3ccc(F)cc3)s2)cc1
TGI: > 100 µM

molecule: c1ccc(-c2n(Cc3ccc4ccccc4n3)c3ccccc3[n+]2Cc2ccc3ccccc3n2)cc1
TGI: > 55.6 µM

Now consider a different molecule.
Entry CC(NC(=O)C(C)C(=O)NCc1ccc(C(F)(F)F)cc1)C(N)=O (stereo unspecified) — recorded TGI = > 100 µM

###

# Tested on: IGROV1 ovarian
# protocolDetails: NCI tumour cell line growth inhibition, 48 h
compounds and their reported GI50

Completed entries (count: 2):
compound: Oc1c(I)cc(I)cc1CNCCCN(Cc1ccccn1)Cc1ccccn1
GI50: 0.866 µM
//
compound: COc1ccc(/C=C/c2nc(N3CCOCC3)c3cc(F)c(F)cc3n2)cc1OC
GI50: 47.4 µM

# value of GI50, IGROV1 ovarian, item CCOC(=O)Nc1nc2c(F)c(F)c(F)cc2s1 = > 100 µM

Kindly note: IGROV1 ovarian, C/C1=C\CC[C@@](C)(O)[C@H]2C[C@H](CC/C(C)=C/CC1)C1(CC1)C(=O)O2 , GI50 value reported: 18.9 µM

Form field GI50 for item O=C(Cc1ccccc1)Nc1nnc(CCSCCc2nnc(NC(=O)Cc3ccccc3)s2)s1 on IGROV1 ovarian: 25.9 µM

Form: item O=C1Nc2ccccc2C12CC(c1ccccc1)=NN2 (configuration not stated) ; test system IGROV1 ovarian; GI50: 5.75 µM

GI50 value, target or system IGROV1 ovarian, for CC(=O)OC1CCC2(C)C(CCC3C2CCC2(C)C(C4=CC(=O)OC4)CCC32)C1 (configuration not stated) : 16.9 µM

###

# System: UACC-62 melanoma
# protocolDetails: NCI tumour cell line growth inhibition, 48 h
List of TGI values.

Below: 2 compounds and their reported TGI.
compound: C/C=C/C=C/C1=NN(c2cccc(S(=O)(=O)O)c2)C2(C1)SCC(=O)N2c1nc2ccccc2s1 (stereo not drawn)
result: > 100 µM
//
compound: Sc1nnc(-c2ccccc2Nc2ccccc2-c2nnc(S)n2-c2ccccc2)n1-c1ccccc1
result: > 100 µM

Now for another entry.
Notebook: CSc1nc2c(nc(N)n2C2OCC(O)C(O)C2O)c(=O)[nH]1 (stereo not drawn) , TGI read as > 100 µM

###

# System: SK-MEL-2 melanoma
# protocolDetails: NCI tumour cell line growth inhibition, 48 h
Each entry below lists one item and its recorded TGI value.

Examples with answers:
compound: C=CCN1CC2CN=NC2(C#N)C1 (stereo not drawn)
measuredMetric: TGI
result: > 100 µM
--
compound: O=C(CCCn1ccnc1[N+](=O)[O-])NCCn1cnc([N+](=O)[O-])c1
measuredMetric: TGI
result: > 100 µM

Moving on to the next compound.
compound CC1SC2=NC3=C(c4ccccc4C3=O)C(c3ccc(Br)cc3)N2C1=O (stereo not drawn) , TGI observed: > 100 µM

###

# Test system: OVCAR-8 ovarian
# protocolDetails: NCI tumour cell line growth inhibition, 48 h
measuredMetric: TGI

compound: C=CCC1NCCC2=C1C(S(=O)(=O)c1ccc(C)cc1)c1ccccc12 (configuration not stated)
measuredMetric: TGI
result: 30.5 µM

Measured TGI of CC(C)O/C=C1\C(=O)C2(SCCS2)[C@H]2CCCC[C@@H]12 : > 100 µM

###

# Tested on: BT-549 breast
# protocolDetails: NCI tumour cell line growth inhibition, 48 h
measuredMetric: TGI

molecule: O=C(c1ccc(Cl)cc1)N1N=C(c2ccc(Cl)cc2)CC1(O)c1cc(F)c(Cl)cc1Cl (centres undefined)
result: > 100 µM

The reported BT-549 breast TGI of OC(COc1ccc(Cl)cc1Cl)CN1CCCC1 (centres undefined) is > 100 µM

Summary line: O=C1Nc2ccccc2C12CC(c1ccccc1)=NN2 (centres undefined) , BT-549 breast, reported TGI = > 100 µM

Response field TGI (BT-549 breast) for item Cc1ccc(S(=O)(=Nc2ccccc2)C(C(C)C)C(C)(C)Cl)cc1 (centres undefined) : > 50 µM

###

# Test system: SNB-75 CNS
# protocolDetails: NCI tumour cell line growth inhibition, 48 h; in the data active means GI50 below about 0.43 µM; inactive means the rest
Output constraint: value belongs to active, inactive

Some solved cases for reference:
structureSmiles: CCN(CC)c1ccc(/C=C/C(=O)c2cccc(NS(C)(=O)=O)c2)cc1
cat: inactive
--
structureSmiles: CCC[CH2][Sn]1([CH2]CCC)[O]C(=O)C[S]1
cat: inactive
--
structureSmiles: C[C@@H]1CN(Cc2ccc(/C=C/c3n[nH]c4ccc5nc(-c6cn[nH]c6C(F)(F)F)c6c(c5c34)CCCC6)cc2)C[C@H](C)O1
cat: inactive
--
structureSmiles: Cc1cc(-c2ccccc2)c(C)n1Cc1ccc(Cl)cc1
cat: inactive
--
structureSmiles: c1ccc(-c2n(Cc3ccc4ccccc4n3)c3ccccc3[n+]2Cc2ccc3ccccc3n2)cc1
cat: active

# input # fetch the recorded call for CCOC(=O)Nc1nc2c(F)c(F)c(F)cc2s1 here
# output inactive

# input State the result this test recorded for COC(=O)Nc1nc2c(OC)c(OC)c(OC)cc2[nH]1 .
# output inactive

# input For Cc1cc2nc3ccc(N=Nc4ccc(N(C)C)cc4)cc3n(-c3ccccc3)c-2cc1=N , what call appears in the results of this test?
# output active
